Values from patent US20040176301A1

Measured % Inhibition, cyclin D1/CDK4 kinase values are reported for all entries that follow.
Target: CDK4/Cyclin D1 complex (UniProt P11802 1-303; P24385 1-295); note: test concentration or dose not given here
Sequence (P11802 other isoform, or with tags, fused parts or gaps, chain 1 of 2): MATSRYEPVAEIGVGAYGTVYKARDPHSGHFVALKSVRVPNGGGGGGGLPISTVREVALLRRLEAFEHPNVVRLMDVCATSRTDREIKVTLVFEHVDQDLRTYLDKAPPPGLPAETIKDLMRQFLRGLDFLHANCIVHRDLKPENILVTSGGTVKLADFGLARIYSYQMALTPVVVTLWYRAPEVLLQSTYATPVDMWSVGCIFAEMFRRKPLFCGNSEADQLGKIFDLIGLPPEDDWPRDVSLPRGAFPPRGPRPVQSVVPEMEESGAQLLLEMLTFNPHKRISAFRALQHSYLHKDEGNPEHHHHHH
Sequence (P24385 whole entry, chain 2 of 2): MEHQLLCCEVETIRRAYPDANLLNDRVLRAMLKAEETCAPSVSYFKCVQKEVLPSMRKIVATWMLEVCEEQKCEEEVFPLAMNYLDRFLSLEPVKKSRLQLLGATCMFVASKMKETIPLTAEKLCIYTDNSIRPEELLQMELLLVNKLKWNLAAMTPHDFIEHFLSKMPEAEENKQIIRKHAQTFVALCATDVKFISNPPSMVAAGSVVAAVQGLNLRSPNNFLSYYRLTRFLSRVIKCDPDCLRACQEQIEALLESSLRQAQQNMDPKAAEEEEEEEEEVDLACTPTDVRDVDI
Assay: cell-based or functional assay
Ends that are not written are not given here.
// return numeric value only (unit: %, not printed)

Query: Please report the recorded % Inhibition, cyclin D1/CDK4 kinase for DFYHSKRRLIFS-NH2 [p21 (149-160) DFYHSKRRLIFS-NH2] .
Response: 70

Query: Any idea what its % Inhibition, cyclin D1/CDK4 kinase is? The binder is FYHSKRRLIFSK-NH2 [FYHSKRRLIFSK-NH2]
Response: 70

Query: Field request: % Inhibition, cyclin D1/CDK4 kinase | item: YHSKRR-NH2 [YHSKRR-NH2]
Response: 10
